Assay Explanation: Validation screen for small molecules that induce genotoxicity in human embryonic kidney (HEK293T) cells expressing luciferase-tagged ELG1 (AID 493106)
Setup Conditions: luminescence; series mostly up to 46.1 µM
Records with an inconclusive call do not appear. The source made the active and inactive calls. Calls come from the whole dose curve; as a rule, active = well fitted activation curve with a large enough effect; inconclusive = small, poorly fitted or top-dose-only effect; inactive = no such curve, though single readings can be large or run the other way.
Just give me one of these, please: y for active, n for inactive

Here's what some known entries look like.
CC(C)C(=O)c1c(C(C)C)nn2ccccc12 : n
Nc1ncnc2c1ncn2[C@@H]1O[C@H](CO)[C@@H](O)[C@H]1O : n

*Q* Which result was noted for this molecule in the test: CC(C(O)c1ccc(O)cc1)N1CCC(Cc2ccccc2)CC1 (stereo unspecified)
*A* n

*Q* Similarly, CSc1ccc2c(c1)C(N1CCN(C)CC1)Cc1ccccc1S2 (stereo unspecified) ?
*A* n

*Q* Please answer likewise for N=c1c[n+](N2CCOCC2)[n-]o1
*A* n

*Q* What would you report for CN(C)CCC=C1c2ccccc2CCc2ccccc21 ?
*A* n

*Q* And CC(CN(C)C)CN1c2ccccc2CCc2ccccc21 (stereo unspecified) ?
*A* n

*Q* Can you check CCN(CC)CCCC(C)Nc1c2ccc(Cl)cc2nc2ccc(OC)cc12 (stereo unspecified) next?
*A* y

*Q* Now give it for NC(N)=NCCC[C@H](N)C(=O)O too.
*A* n

*Q* Then what about the molecule CNC(=O)Oc1ccc2c(c1)[C@]1(C)CCN(C)[C@@H]1N2C ?
*A* n

*Q* Further, for Cc1cc(N)c2ccccc2[n+]1CCCCCCCCCC[n+]1c(C)cc(N)c2ccccc21 ?
*A* n

---

Assay Explanation: qHTS of pediatric cancer cell lines to identify multiple opportunities for drug repurposing: Primary screen for RD cells (AID 1347104); note: nearly all actives have a fitted effect of over 55% in size
Setup Conditions: RD rhabdomyosarcoma viability, CellTiter-Glo luminescence, 48 h; series mostly up to 46 µM
Protocol: Drug repurposing or repositioning has been offered as a strategy for drug development in oncology programs. This approach has special potential for childhood cancers and other rare or orphan diseases, where the expected return on new drug development has been a disincentive to pharmaceuticals. […] We employed a titration-based paradigm (quantitative high-throughput screening or qHTS), where all compounds were tested at multiple concentrations for their effect on cell viability. […]
Results filed as inconclusive are left out. The source made the active and inactive calls. Calls follow the shape of the dose curve; as a rule, active = well fitted cell-killing curve with a large enough effect; inconclusive = small, poorly fitted or top-dose-only effect; inactive = flat fitted curve, though single readings scatter.
Thanks in advance; please answer with one of these: active, inactive

Nc1ccc(S(=O)(=O)NC(=O)c2ccccc2)cc1 : inactive
O=S(=O)(O)c1cc(I)c(O)c2ncccc12 : inactive
NS(=O)(=O)c1cc2c(cc1C(F)(F)F)NC(Cc1ccccc1)NS2(=O)=O (centres undefined) : inactive
C[C@H]1O[C@@H](n2cc(F)c(=O)[nH]c2=O)[C@H](O)[C@@H]1O : inactive

*Q* Which result was noted for this compound in the test: O=C1O[C@H](CO)[C@@H](O)[C@H](O)[C@H]1O
*A* inactive

*Q* Now this one: Cn1c(=O)c2c(ncn2CC2OCCO2)n(C)c1=O
*A* inactive

*Q* Item: CCN(CC)C(C)CN1c2ccccc2Sc2ccccc21 (centres undefined)
*A* inactive

*Q* Similarly, O=C(O)c1ccccn1 ?
*A* inactive

*Q* Try this compound too: CC(C)(C(=O)O)c1ccc(C(O)CCCN2CCC(C(O)(c3ccccc3)c3ccccc3)CC2)cc1 (centres undefined)
*A* inactive

*Q* C[C@]12CC[C@@H]3c4ccc(O)cc4CC[C@H]3[C@@H]1CCC2=O , same question.
*A* inactive

*Q* Would you mind doing O=C1c2c(O)cccc2Cc2cccc(O)c21 as well?
*A* inactive

*Q* Try the compound Cn1cc[nH]c1=S
*A* inactive
